The following compounds are listed with their measured TGI values.
system: T-47D breast; experiment: NCI tumour cell line growth inhibition, 48 h
// units = µM; emit number, no label

Some compounds with known TGI results, for comparison:
| compound | u | meas.value |
| --- | --- | --- |
| Nc1nnnc2nc[nH]c12 | µM | 2.55 |
| C/C(=N/O)c1ccc2c(c1)/C(=N/O)c1ccccc1-2 | µM | 52.7 |
| Cc1ccc(OCC2=NC3S/C(=C/c4ccc([N+](=O)[O-])o4)C(=O)N3N2)cc1 (stereo not given) | µM | 5.39 |

# next compound below
Query string: What value of TGI has been recorded for this entry: "O=c1cc(NNc2ccccc2F)[nH]c(=O)[nH]1"
Result string: 18

* * *

The following compounds are listed with their measured TGI values.
test system: A549 NSCLC; assay: NCI tumour cell line growth inhibition, 48 h

| compound | TGI |
| --- | --- |
| CCc1[nH]c(=O)c2oc3cc4ccccc4cc3c2c1C(=O)O | > 10 µM |
| Nc1ncnc2c1ncn2-c1ccc([N+](=O)[O-])cn1 | > 100 µM |
| CC[C@]1(O)CC2CN(CCc3c([nH]c4ccccc34)[C@@](C(=O)OC)(c3cc4c(cc3OC)N(C=O)[C@H]3[C@@](O)(C(=O)OC)[C@H](OC(C)=O)[C@]5(CC)C=CCN6CC[C@]43[C@@H]65)C2)C1 (stereo not given in full) | > 50 µM |
| Cc1cc(C)c2c(c1)N[S@@](=O)S2 | > 100 µM |

Query string: What value of TGI has been recorded for this entry: C[N+]1(CCC(=O)c2ccccc2)CCC2CCC(C2)C1 (stereo not given)
Result string: > 100 µM

* * *

test system: NCI-H522 lung; assay: NCI tumour cell line growth inhibition, 48 h
The following compounds are listed with their measured TGI values.

| compound | TGI |
| --- | --- |
| C/C(=N\n1c(O)c(C#N)cc(C#N)c1=O)c1ccncc1 | > 100 µM |
| O=C(COc1ccc(OCC(=O)N2C(=O)CN(c3ccccc3)C2=S)cc1)N1C(=O)CN(c2ccccc2)C1=S | > 100 µM |
| N/C(=N\N=C\c1cc(I)cc(I)c1O)NO | > 100 µM |
| O=c1ccc(=O)n(-c2ccccc2)[nH]1 | > 100 µM |
| C[C@H](CS)C(=O)N1c2ccccc2C[C@H]1C(=O)O | > 100 µM |

Query string: What value of TGI has been recorded for this entry: CC12C(=C(C#N)C(=N)N1c1ccc(Cl)c(Cl)c1)C=C(O)CC2SCCS(=O)(=O)O (configuration not stated)
Result string: > 100 µM

Query string: What value of TGI has been recorded for this entry: "CN(C)/C=N\c1nncc2[nH]cnc12"
Result string: > 100 µM

Query string: What value of TGI has been recorded for this entry: CC[C@]1(O)CC2CN(CCc3c([nH]c4ccccc34)[C@@](C(=O)OC)(c3cc4c(cc3OC)N(C=O)[C@H]3[C@@](O)(C(=O)OC)[C@H](OC(C)=O)[C@]5(CC)C=CCN6CC[C@]43[C@@H]65)C2)C1 (some centres not stated)
Result string: < 0.005 µM

Query string: What value of TGI has been recorded for this entry: "COc1ccc(-c2ccccc2)c2[nH]c3c(c12)CCNC3=O"
Result string: > 100 µM

Query string: What value of TGI has been recorded for this entry: "Cc1cccc(/C=N\NC(=S)N2CCCCC2)n1"
Result string: > 100 µM

Query string: What value of TGI has been recorded for this entry: "CCOC(=O)c1cnc2c(ccc3[nH]cccc32)c1=O"
Result string: > 100 µM

Query string: What value of TGI has been recorded for this entry: O=C(O)C1CCCCN1C(=O)Cc1c[nH]c2ccccc12 (configuration not stated)
Result string: > 100 µM

Query string: What value of TGI has been recorded for this entry: "Oc1cnc2c(O)cccc2c1"
Result string: > 100 µM

Query string: What value of TGI has been recorded for this entry: "N=c1ccc2nc(N)nn(O)c-2c1"
Result string: > 100 µM

Query string: What value of TGI has been recorded for this entry: "CCOCC(=O)N(C)c1cccc2c3c(n(C)c12)CCCCC3"
Result string: > 100 µM

Query string: What value of TGI has been recorded for this entry: "CC1=C(C(=O)NCc2ccccc2)C(c2ccccc2C)C(C(=O)NCc2ccccc2)=C(C)N1"
Result string: 66.2 µM

Query string: What value of TGI has been recorded for this entry: "CCOC(=O)c1c(-c2cccc(Cl)c2)c(C(=O)OC)c(C)c2sc(C=O)nc12"
Result string: 32.5 µM

Query string: What value of TGI has been recorded for this entry: "C[C@@H]1O[C@]2(O)[C@@H]3CCCN3S(=O)(=O)CCN2C1=O"
Result string: > 100 µM

Query string: What value of TGI has been recorded for this entry: "CN1CCN(c2ccc(NC(=O)c3cncnc3Nc3ccc(OCc4cccc(F)c4)c(Cl)c3)cc2)CC1"
Result string: 3.28 µM

Query string: What value of TGI has been recorded for this entry: "CC1(C)OCN(c2ccc(S(N)(=O)=O)cc2)Cn2c1nc1ccccc12"
Result string: > 100 µM

Query string: What value of TGI has been recorded for this entry: "CCCCNC(=NCc1ccccc1)NC#N"
Result string: > 100 µM

Query string: What value of TGI has been recorded for this entry: "Cc1c(-c2ccc(O)cc2)oc(=O)c2ccc(O)cc12"
Result string: > 100 µM
